The entries below are paired with their reported activity coefficient.
- assay-explanation: activity coefficient (dimensionless); of the first substance listed, at infinite dilution; xn = mol fraction of the nth substance listed
- protocol-conditions: 333.15 K; 101 kPa; Liquid; Chromatography; x1 = 0
Form rule: numeric answer, no unit written next to it.

-- ask What value of activity coefficient has been reported for the following compound? Cc1ccc(C)cc1 [1,4-dimethylbenzene] + CCCC[N+]1(C)CCCC1.O=S(=O)([N-]S(=O)(=O)C(F)(F)F)C(F)(F)F
-- reply 1.8

-- ask What value of activity coefficient has been reported for the following compound? ClCCl [dichloromethane] + CCCC[N+]1(C)CCCC1.O=S(=O)([N-]S(=O)(=O)C(F)(F)F)C(F)(F)F
-- reply 0.7

-- ask What value of activity coefficient has been reported for the following compound? CCCC(C)=O [pentan-2-one] + CCCC[N+]1(C)CCCC1.O=S(=O)([N-]S(=O)(=O)C(F)(F)F)C(F)(F)F
-- reply 0.81

-- ask What value of activity coefficient has been reported for the following compound? c1ccncc1 [pyridine] + CCCC[N+]1(C)CCCC1.O=S(=O)([N-]S(=O)(=O)C(F)(F)F)C(F)(F)F
-- reply 0.59

-- ask What value of activity coefficient has been reported for the following compound? CCCCCCCCC [nonane] + CCC[N+]1(C)CCCC1.O=S(=O)([N-]S(=O)(=O)C(F)(F)F)C(F)(F)F
-- reply 48.7

-- ask What value of activity coefficient has been reported for the following compound? CCC(=O)CC [pentan-3-one] + CCCC[N+]1(C)CCCC1.O=S(=O)([N-]S(=O)(=O)C(F)(F)F)C(F)(F)F
-- reply 0.75

-- ask What value of activity coefficient has been reported for the following compound? Cc1ccccc1C [1,2-dimethylbenzene] + CCCC[N+]1(C)CCCC1.O=S(=O)([N-]S(=O)(=O)C(F)(F)F)C(F)(F)F
-- reply 1.64

----------
The entries below are paired with their reported activity coefficient.
- assay-explanation: activity coefficient (dimensionless); of the first substance listed, at infinite dilution; xn = mol fraction of the nth substance listed
- protocol-conditions: 333.15 K; 101 kPa; Liquid; Chromatography; x1 = 0
Form rule: numeric answer, no unit written next to it.

Sample records with activity coefficient:
molecule	assay-value
C1CCCCC1 [cyclohexane] + CCCC[N+]1(C)CCCC1.O=S(=O)([N-]S(=O)(=O)C(F)(F)F)C(F)(F)F	7.96
CCCCCCCCCCC [undecane] + CCC[N+]1(C)CCCC1.O=S(=O)([N-]S(=O)(=O)C(F)(F)F)C(F)(F)F	92.8
Cc1ccccc1 [toluene] + CCC[N+]1(C)CCCC1.O=S(=O)([N-]S(=O)(=O)C(F)(F)F)C(F)(F)F	1.38
CCOCC [diethyl ether] + CCCC[N+]1(C)CCCC1.O=S(=O)([N-]S(=O)(=O)C(F)(F)F)C(F)(F)F	2.54
CO [methanol] + CCCC[N+]1(C)CCCC1.O=S(=O)([N-]S(=O)(=O)C(F)(F)F)C(F)(F)F	1.28
CCC(C)=O [butanone] + CCC[N+]1(C)CCCC1.O=S(=O)([N-]S(=O)(=O)C(F)(F)F)C(F)(F)F	0.58

-- ask What value of activity coefficient has been reported for the following molecule? Cc1ccc(C)cc1 [1,4-dimethylbenzene] + CCC[N+]1(C)CCCC1.O=S(=O)([N-]S(=O)(=O)C(F)(F)F)C(F)(F)F
-- reply 2

Origin of the recorded values: the NIST ThermoML archive (doi:10.1021/je4001894)
